Across several studies, compounds have been characterized by their pIC50 on MAGL (Homo sapiens, UniProt Q99685); a selection follows.
FYI, pIC50 means -log10 of a concentration in mol per litre.

Solved entries (count: 10):
* CC1CN(C(=O)N2CC[C@@H]3OCC(=O)N[C@@H]3C2)CCC1c1ccc(C(C)(F)F)cn1 (single isomer, unassigned) | 6.42
* Cc1c(C(=O)N2CCN3C[C@@](O)(c4ccc(Cl)cc4)CC[C@@H]3C2)cncc1-c1cc[nH]n1 | 6.00
* O=C(c1ccc[nH]1)N1CCN(C2CN(C(=O)c3nn(-c4ccc(Cl)cc4Cl)c4c3CSC/C4=C\c3ccc(F)cc3)C2)CC1 | 7.16
* COc1ccc(C(c2ccncc2)C2CCN(C(=O)N3CC[C@@H]4OCC(=O)N[C@@H]4C3)CC2)cc1OC (single isomer, unassigned) | 7.29
* O=C(c1ccccc1)N1CCN(C2CN(C(=O)c3ccc(-c4ccccc4C(F)(F)F)cc3)C2)CC1 | 6.49
* CC(C)n1c(C(F)(F)F)nc2cc(C(=O)N3CC(N4CCN(C(=O)c5nccs5)CC4)C3)ccc21 | 6.53
* O=C(c1cscn1)N1CCN(C2CN(C(=O)c3cc4ccc(C(F)(F)F)cc4[nH]3)C2)CC1 | 5.43
* Cc1ccc2oc(N3CCN(C(=O)c4ccc(-c5ncn(CC(C)(C)C)n5)c(F)c4)CC3)nc2n1 | 7.47
* O=C(c1cnc2c(ccn2-c2ccc(F)cc2)c1)N1CC(N2CCN(C(=O)c3nccs3)CC2)C1 | 8.22
* O=C1CO[C@H]2CCN(C(=O)N3CCC(Cc4ccc(C(F)(F)F)cc4OCC(F)(F)F)CC3)C[C@H]2N1 | 7.27

Query :: Give the reported value of pIC50 for this record: Cn1cc(-c2cccc(C(F)(F)F)c2)c2ccc(C(=O)N3CC(N4CCN(C(=O)c5ccccc5)CC4)C3)cc21
Result :: 6.51

Query :: Give the reported value of pIC50 for this record: O=C(c1nccs1)N1CCN(C2CN(C(=O)c3cccc4oc(-c5ccccc5)nc34)C2)CC1
Result :: 7.00

Query :: Give the reported value of pIC50 for this record: Cc1cc(C(=O)N2CCN(c3nc4nc(Cl)ccc4o3)CC2)cnc1OCC1CCCO1 (centres unmarked)
Result :: 6.32

Query :: Give the reported value of pIC50 for this record: O=C(c1ccc(-c2cccc(C(F)(F)F)c2)cc1)N1CC(C2CCN(C(=O)c3cscn3)CC2)C1
Result :: 7.81

###

Across several studies, compounds have been characterized by their IC50 on MAGL (Homo sapiens, UniProt Q99685); a selection follows.
Numbers only; they are read as µM.

Solved entries (count: 2):
- O=C(c1cccc(-c2c[nH]nc2F)c1Cl)N1CCN2CC(c3ccc(Br)nc3)OC[C@@H]2C1 (mixture of isomers): 0.0446
- O=C1CO[C@H]2CCN(C(=O)N3CC(c4ccc(OC(F)(F)F)cc4Cl)C3)C[C@H]2N1: 0.018

Attention now shifts to the item below.
Query :: Give the reported value of IC50 for this record: Cc1ccc2oc(N3CCN(C(=O)c4ccc(-c5cnn(CC(C)(C)C)n5)c(C#N)c4)CC3)nc2n1
Result :: 0.033

###

Across several studies, compounds have been characterized by their pIC50 on MAGL (Homo sapiens, UniProt Q99685); a selection follows.
FYI, pIC50 means -log10 of a concentration in mol per litre.

Solved entries (count: 2):
- Cn1nc(-c2ccccc2)c2cc(C(=O)N3CC(N4CCN(C(=O)c5nccs5)CC4)C3)ccc21: 7.59
- Cc1cnccc1-c1cccc(C(=O)N2CCN3C[C@@H](c4ccc(F)c(Cl)c4)OC[C@@H]3C2)c1Cl: 7.49

Query :: State pIC50 on MAGL (Homo sapiens, UniProt Q99685). Entry: O=C1NC(COC(=O)N2CC(c3ccc(N4CCC(C(F)(F)F)C4)nc3)C2)CO1 (single isomer, unassigned)
Result :: 7.27

###

Across several studies, compounds have been characterized by their IC50 on MAGL (Homo sapiens, UniProt Q99685); a selection follows.

Query :: State IC50 on MAGL (Homo sapiens, UniProt Q99685). Entry: O=C1COC2CCN(C(=O)N3CC(c4ccc(C5(C(F)(F)F)CC5)cc4)C3)CC2N1 (single isomer, unassigned)
Result :: 15 nM

Query :: State IC50 on MAGL (Homo sapiens, UniProt Q99685). Entry: CC(C)(C)n1cnc(-c2ccc(C(=O)N3CCN(c4nc5nc(Cl)ccc5o4)CC3)cc2C(F)(F)F)n1
Result :: 12 nM

Query :: State IC50 on MAGL (Homo sapiens, UniProt Q99685). Entry: O=C1CO[C@H]2CCN(C(=O)N3CC(c4ccc(Oc5ccnnc5Cl)cc4)C3)C[C@H]2N1
Result :: 23.5 nM

Query :: State IC50 on MAGL (Homo sapiens, UniProt Q99685). Entry: O=C1CO[C@H]2CCN(C(=O)N3CC(C#Cc4ccc(C(F)(F)F)cc4F)C3)C[C@H]2N1
Result :: 5 nM

Query :: State IC50 on MAGL (Homo sapiens, UniProt Q99685). Entry: O=C(c1ccc2c(cnn2-c2ccccc2)c1)N1CC(N2CCN(C(=O)c3nccs3)CC2)C1
Result :: < 5 nM

Query :: State IC50 on MAGL (Homo sapiens, UniProt Q99685). Entry: CS(=O)(=O)Nc1ccn(C(=O)N2CCN(Cc3cc(N4CCCC4)ccc3Cl)CC2)n1
Result :: 100 to 1000 nM

Query :: State IC50 on MAGL (Homo sapiens, UniProt Q99685). Entry: O=C(c1ccc2c(-c3ccc(C(F)(F)F)cc3)ncnc2c1)N1CC(N2CCN(C(=O)c3nccs3)CC2)C1
Result :: 9 nM

Query :: State IC50 on MAGL (Homo sapiens, UniProt Q99685). Entry: O=C1N[C@H](CCC(=O)N2CC3(CCC(Cc4ccc(C(F)(F)F)cn4)CC3)C2)CO1
Result :: 16 nM

Query :: State IC50 on MAGL (Homo sapiens, UniProt Q99685). Entry: Cn1cc(-c2cccc(F)c2)c2ccc(C(=O)N3CC(N4CCN(C(=O)c5nccs5)CC4)C3)cc21
Result :: 29 nM

Query :: State IC50 on MAGL (Homo sapiens, UniProt Q99685). Entry: CC(c1ccc(C(F)(F)F)cc1)C1CN(C(=O)N2CC[C@@H]3OCC(=O)N[C@@H]3C2)C1 (single isomer, unassigned)
Result :: 111 nM

Query :: State IC50 on MAGL (Homo sapiens, UniProt Q99685). Entry: O=C1CO[C@H]2CCN(C(=O)N3CC(C[S+]([O-])c4ccc(C(F)(F)F)cc4Cl)C3)C[C@H]2N1 (mixture of isomers)
Result :: 318 nM

Query :: State IC50 on MAGL (Homo sapiens, UniProt Q99685). Entry: O=C(c1ccc2c(c1)[S+]([O-])c1ccccc1O2)N1CC(N2CCN(C(=O)c3nccs3)CC2)C1 (stereo not drawn)
Result :: 2080 nM

Query :: State IC50 on MAGL (Homo sapiens, UniProt Q99685). Entry: Cc1ccc2oc(N3CCN(C(=O)c4ccc(-c5nnn(CC(C)(C)C)n5)cc4)CC3)nc2n1
Result :: 9 nM

Query :: State IC50 on MAGL (Homo sapiens, UniProt Q99685). Entry: O=C(c1nccs1)N1CC[C@H](NC2CN(C(=O)c3sc4cc(Br)ccc4c3Cl)C2)C1
Result :: 12.4 nM

Query :: State IC50 on MAGL (Homo sapiens, UniProt Q99685). Entry: CCCn1ccc2cc(C(=O)N3CC(N4CCN(C(=O)c5nccs5)CC4)C3)ccc21
Result :: 44 nM

###

Across several studies, compounds have been characterized by their IC50 on UniProt:Q99685; a selection follows.
Numbers only; they are read as nM.

* O=C1N[C@H](CCC(=O)N2CC(c3noc(C45CC(C(F)(F)F)(C4)C5)n3)C2)CO1 | 854
* Cc1nn(-c2cccc(C(F)(F)F)c2)c2sc(C(=O)N3CC(N4CCN(C(=O)c5nccs5)CC4)C3)cc12 | 32
* O=C(c1ccc(Cc2ccc(C(F)(F)F)cc2)cc1)N1CC(C2CCN(C(=O)c3nccs3)CC2)C1 | 9
* O=C1CO[C@H]2CCN(C(=O)N3CCC(Nc4ccc([N+](=O)[O-])c5nonc45)CC3)C[C@H]2N1 | 3810
* O=C1CO[C@H]2CCN(C(=O)N3CC(c4ccc(OC(F)(F)F)c(Cl)c4)C3)C[C@H]2N1 | 11

Query :: State IC50 on UniProt:Q99685. Entry: O=C(c1cccc(-c2c[nH]c(=O)o2)c1Cl)N1CCN2C[C@@H](c3ccc(F)c(Cl)c3)OC[C@@H]2C1
Result :: 46.4

Query :: State IC50 on UniProt:Q99685. Entry: CC(C)(C)OC(=O)N1CCc2cccc(C(=O)N3CC(N4CCN(C(=O)c5cscn5)CC4)C3)c2C1
Result :: 9220
